- System: MDA-MB-435 melanoma
- Assay Details: NCI-60 one-dose screen, 48 h (100 = growth as untreated, 0 = no growth, -100 = all killed)
- Condition Notes: 10 µM unless noted
The panel holds about 83,000 compounds, 20% with a hit somewhere; the sample as a whole holds those more often.
Quick reference: growth of the listed items.
Record the value in %, omitting the unit from your answer.

| Compound | Experimental Target | growth / % |
| --- | --- | --- |
| COc1cc(C2CC(c3ccc(C)cc3)=NN2C=O)ccc1OCCN(C)C (configuration not stated) | MDA-MB-435 melanoma | 102 |

Problem: Report growth from MDA-MB-435 melanoma testing of `O=C(/C=C/c1cccc(O)c1)c1cccc(-n2cc(-c3ccccc3)[nH]c2=O)c1`
Result: 33.8

Problem: Report growth from MDA-MB-435 melanoma testing of `O=Cc1ccccc1C(=O)O`
Result: 96.6
